Entry source: PubChem BioAssay (NCI)

- Test system: IGROV1 ovarian
- assay-protocol: NCI tumour cell line growth inhibition, 48 h
Measured TGI of individual entries

Worked cases, TGI given:
O=C(Nc1ccccc1)Oc1ccccc1C1CCCCC1 : > 100 µM
Cc1cc(NS(=O)(=O)c2ccc(NC(NC(=O)OC(C)C)(C(F)(F)F)C(F)(F)F)cc2)nc(C)n1 : > 100 µM
Cc1ccc(C)c(C(=O)CC2OC(O)C(Cl)C2Cl)c1 (stereo unspecified) : > 100 µM
Cn1c(=O)c(Oc2ccc(F)cc2F)cc2cnc(NC3CCC(O)CC3)nc21 (stereo unspecified) : > 25 µM
CCOC(=O)N/N=C(/N)Cc1ccc(Cl)cc1 : > 100 µM

Proceed to the following item.
Incoming: Supply reported TGI belonging to this compound: CC(C)(CCc1nc2ccccc2[nH]1)C(=O)O
Outgoing: > 100 µM

* * *

- Test system: UACC-257 melanoma
- assay-protocol: NCI tumour cell line growth inhibition, 48 h
Measured TGI of individual entries

Worked cases, TGI given:
CC(=O)Nc1ccc(C(=O)NN2C(=O)CSC2c2ccccc2)cc1 (configuration not stated) : > 100 µM
CCc1nc2cc(F)ccc2[nH]c1=O : > 100 µM

Incoming: GET TGI | system: UACC-257 melanoma | item: NC1=NN(c2ccccc2)C(=O)C1/C(=N\NC(=O)c1cc2ccccc2cc1O)C(=O)Nc1ccc(Cl)cc1 (configuration not stated)
Outgoing: 80.4 µM

Incoming: GET TGI | system: UACC-257 melanoma | item: Cc1ccc(S(=O)(=O)NCc2cccc([N+](=O)[O-])c2)cc1
Outgoing: > 100 µM

Incoming: GET TGI | system: UACC-257 melanoma | item: CC(C)C12CCC3(CCC4C(C)(C(=O)O)CCCC4(C)C3C1)C(CN)C2 (configuration not stated)
Outgoing: > 100 µM

Incoming: GET TGI | system: UACC-257 melanoma | item: Clc1ccc(N=CNc2ccc(-c3nc4ccccc4[nH]3)cc2)cc1
Outgoing: > 100 µM

Incoming: GET TGI | system: UACC-257 melanoma | item: O=C(/C=C/N1CCN(c2cccc(Cl)c2)CC1)c1ccc(Cl)cc1
Outgoing: 63.5 µM

* * *

- System: NCI-H460 lung
Output constraint: value belongs to True = active, False = inactive

Reference set (2 entries):
Oc1ccc(/C=N/Nc2nnc(N/N=C/c3ccc(O)cc3O)c3ccccc23)c(O)c1 : True
N#Cc1c(N)nc(N2CCOCC2)c(C#N)c1-c1ccc(Cl)cc1Cl : False

Incoming: Test call, this molecule: COc1cccc2c(Nc3ccc(C(=O)NCCN4CCNCC4)cc3)cc(-c3ccccc3)nc12
Outgoing: False

Incoming: Test call, this molecule: CN(C)C(=O)c1cc2cnc(Nc3ccc(N4CCNCC4)cn3)nc2n1C1CCCC1
Outgoing: False

Incoming: Test call, this molecule: O=C(Nc1cccc(C(F)(F)F)c1)Nc1cc(S(=O)(=O)NC2CC2)ccc1-c1ccsc1
Outgoing: False

Incoming: Test call, this molecule: COc1ccc(S(=O)(=O)NCCCNc2nccc(-c3c(-c4ccc(F)cc4)nc4sccn34)n2)cc1
Outgoing: False

Incoming: Test call, this molecule: COc1ccc(-c2ccc(/C=N/n3c(COc4ccc(Cl)c(C)c4)nn(CN4CCOCC4)c3=S)o2)c([N+](=O)[O-])c1
Outgoing: False

Incoming: Test call, this molecule: Cc1c(N)nc(C2CC(=O)N2CC(N)C(N)=O)nc1C(=O)NC(C(=O)NC(C)C(O)C(C)C(=O)NC(C(=O)NCCc1nc(-c2nc(C(=O)NCCNCC(C)O)cs2)cs1)C(C)O)C(OC1OC(CO)C(O)C(O)C1OC1OC(CO)C(O)C(OC(N)=O)C1O)c1cnc[nH]1 (stereo not drawn)
Outgoing: True

* * *

- System: HCT-15 colon
- assay-protocol: NCI tumour cell line growth inhibition, 48 h
readout-kind: TGI

Worked cases, TGI given:
CSC(=NCCCN=C(NS(=O)(=O)c1ccc(Cl)cc1)SC)NS(=O)(=O)c1ccc(Cl)cc1 : > 100 µM
O=[N+]([O-])c1cccc(C2=NOC3CCCC23)c1 (centres undefined) : > 100 µM
Oc1ccc(CCNc2nc3ccccc3c3[nH]c4ccccc4c23)cc1 : 2.93 µM
Cc1c2cc[n+](C)cc2c(C)c2c1[nH]c1ccc(Oc3ccccc3)cc12 : > 100 µM
CC(=O)OC1C(C)OC(OC2C[C@](O)(C(C)=O)Cc3c(O)c4c(c(O)c32)C(=O)c2ccccc2C4=O)C(F)C1OC(C)=O (some centres undefined) : 6.34 µM
c1csc(-c2[nH]nc3c2CCc2ccccc2-3)c1 : 18.6 µM
O=C(/C=C/N1CCN(c2cccc(Cl)c2)CC1)c1ccc(Cl)cc1 : > 100 µM
O=C(Nc1nc2ccc([N+](=O)[O-])cc2s1)c1cc([N+](=O)[O-])ccc1Cl : 8.3 µM

Proceed to the following item.
Incoming: Supply reported TGI belonging to this compound: COc1ccc(Sc2ccccc2[N+](=O)[O-])cc1
Outgoing: > 100 µM

* * *

- System: SR leukemia
- assay-protocol: NCI tumour cell line growth inhibition, 48 h; in the data active = GI50 below about 0.43 µM; inactive = the rest
Output constraint: value belongs to class 1 = active, class 0 = inactive

Reference set (4 entries):
C/C(=N\NC(=O)c1ccncc1)c1ccccc1O : class 0
CCC(=C(c1ccc(OCCN(CC)CC)cc1)c1ccc(OCCN(CC)CC)cc1)c1ccc(Cl)cc1 : class 1
CCn1c(SC)nnc1-c1cc2c([nH]c3ccccc32)c(-c2cccc(O)c2)n1 : class 1
Nc1ccc(N)c2c1C(=O)c1cccc([N+](=O)[O-])c1C2=O : class 0

Now let's try a different one.
Incoming: Test call, this compound: Oc1ccc(/C=N/Nc2nnc(N/N=C/c3ccc(O)cc3O)c3ccccc23)c(O)c1
Outgoing: class 1

* * *

- System: 786-0 renal
- assay-protocol: NCI tumour cell line growth inhibition, 48 h
readout-kind: TGI

Worked cases, TGI given:
Oc1ccc(/C=N/Nc2nnc(N/N=C/c3ccc(O)cc3O)c3ccccc23)c(O)c1 : 2.46 µM
CCOC(=O)/C(=C/c1ccc[nH]1)P(=O)(OCC)OCC : > 100 µM
NS(=O)(=O)c1cc2c(cc1Cl)NC(C(=O)NNC(=O)c1ccncc1)=NS2(=O)=O : > 100 µM
N#Cc1c2c(c(Nc3ccc(Cl)cc3)n3c1nc1ccccc13)CCCC2 : > 100 µM
CN(C)c1ccc(/C=C2\Cc3ccccc3C2=O)cc1Br : > 100 µM

Incoming: GET TGI | system: 786-0 renal | item: CCNC(=O)O/N=C1/C=C2CC[C@@H]3C(CC[C@@]4(C)C3CC[C@@H]4OC(=O)NCC)[C@@]2(C)CC1 (some centres not stated)
Outgoing: 10.7 µM

Incoming: GET TGI | system: 786-0 renal | item: O=C1OC(c2ccccc2)=N/C1=C\c1ccc(N(CCCl)CCCl)cc1
Outgoing: > 100 µM

* * *

- Test system: UACC-62 melanoma
- assay-protocol: NCI tumour cell line growth inhibition, 48 h; in the data active = GI50 below about 0.43 µM; inactive = the rest
Output constraint: value belongs to active, inactive

Reference set (3 entries):
COc1cc(-c2nn(-c3cccc(NC(=O)c4cccc(C(F)(F)F)c4)c3)cc2-c2ccncc2)ccc1Cl : inactive
CC(C)=NO.CC(C)=NO.CC(C)=NO.CC(C)=NO.[Ti] : inactive
Cc1cc(C2(c3cc(C)c(O)c4ncccc34)OC(=O)c3ccccc32)c2cccnc2c1O : active

Now let's try a different one.
Incoming: Test call, this compound: COc1cccc2c(Nc3ccc(C(=O)NCCN4CCNCC4)cc3)cc(-c3ccccc3)nc12
Outgoing: inactive

* * *

- System: HS 578T breast
- assay-protocol: NCI tumour cell line growth inhibition, 48 h
readout-kind: TGI (µM)
# output: bare number, implied unit µM

Worked cases, TGI given:
O=C1Cc2c(-c3ccccc3)cc(-c3ccc(Cl)cc3)nc2-c2ccccc2N1 : 11.8
O=P1(C(O)c2ccccc2)N(Cc2ccccc2)[C@@H]2CCCC[C@H]2N1Cc1ccccc1 (stereo not given in full) : 45.5

Incoming: Supply reported TGI belonging to this molecule: Cc1c(N)nc(C2CC(=O)N2CC(N)C(N)=O)nc1C(=O)NC(C(=O)NC(C)C(O)C(C)C(=O)NC(C(=O)NCCc1nc(-c2nc(C(=O)NCCNCC(C)O)cs2)cs1)C(C)O)C(OC1OC(CO)C(O)C(O)C1OC1OC(CO)C(O)C(OC(N)=O)C1O)c1cnc[nH]1 (stereo not given)
Outgoing: 50

* * *

Measured TGI of individual entries
- Tested on: DU-145 prostate
- assay-protocol: NCI tumour cell line growth inhibition, 48 h

COc1cccc2c(Nc3ccc(C(=O)NCCN4CCNCC4)cc3)cc(-c3ccccc3)nc12 : > 100 µM
Cc1cc(N(CCCl)CCCl)ccc1/C=N\NC(=O)c1cccnc1 : 99 µM
Cc1c(Cl)cc(C(C)(C)C)c(O)c1Cc1c(C)c(Cl)cc(C(C)(C)C)c1O : 11.8 µM
CCCCN1/C(=N/Nc2n[nH]c(=O)c3ccccc23)SCC1c1ccc(Cl)cc1 (stereo not drawn) : > 100 µM
CC(=O)OC1C(C)OC(OC2C[C@](O)(C(C)=O)Cc3c(O)c4c(c(O)c32)C(=O)c2ccccc2C4=O)C(F)C1OC(C)=O (stereo partly drawn) : 4.59 µM
CC(=O)OC/C=C/Cn1nc(Br)c(=O)[nH]c1=O : > 100 µM

Incoming: GET TGI | system: DU-145 prostate | item: N/N=C(\N)SCc1ccc(N=C=S)cc1
Outgoing: > 100 µM

Incoming: GET TGI | system: DU-145 prostate | item: O=C(/C=C/N1CCN(c2cccc(Cl)c2)CC1)c1ccc(Cl)cc1
Outgoing: > 100 µM

Incoming: GET TGI | system: DU-145 prostate | item: ClCc1ccc(Cn2cnc3nc(Cl)nc(Cl)c32)cc1
Outgoing: 1.12 µM

Incoming: GET TGI | system: DU-145 prostate | item: O=C1CSC(c2cccc(Oc3ccccc3)c2)N1c1cc(Cl)ccc1Cl (stereo not drawn)
Outgoing: > 100 µM

Incoming: GET TGI | system: DU-145 prostate | item: COc1ccc2c(C=O)c3n(c(=O)c2c1OC)CCc1cc2c(cc1-3)OCO2
Outgoing: > 100 µM
